# Protocol notes: Dissociation constant, pKa of the compound
# Assay type: physicochemical
Measurement label: pKa
Give bare numbers.

Asked: Give its pKa value. Item: CN(C)c1ccc2c(c1)Sc1cc(N(C)C)ccc1N2 [HYDROMETHYLTHIONINE]
Given back: 4.5

====

# Experimental system: Dihydrolipoyl dehydrogenase, mitochondrial (Sus scrofa)
# Sequence (P09623 whole entry): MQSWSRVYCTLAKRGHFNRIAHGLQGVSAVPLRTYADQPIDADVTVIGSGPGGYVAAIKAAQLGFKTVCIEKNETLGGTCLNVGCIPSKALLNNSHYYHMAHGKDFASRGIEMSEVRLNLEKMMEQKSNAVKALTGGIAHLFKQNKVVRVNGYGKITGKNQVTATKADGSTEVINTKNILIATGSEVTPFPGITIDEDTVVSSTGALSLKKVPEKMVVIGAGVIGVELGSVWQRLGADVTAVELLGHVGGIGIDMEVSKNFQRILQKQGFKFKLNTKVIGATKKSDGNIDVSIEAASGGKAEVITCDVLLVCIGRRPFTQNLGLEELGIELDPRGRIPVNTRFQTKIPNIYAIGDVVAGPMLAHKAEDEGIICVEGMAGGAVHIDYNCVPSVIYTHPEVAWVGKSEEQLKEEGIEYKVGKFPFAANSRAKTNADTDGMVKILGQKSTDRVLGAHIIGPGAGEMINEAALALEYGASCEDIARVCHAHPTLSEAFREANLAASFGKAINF
# Protocol notes: Inhibition of pig recombinant dihydrolipoamide dehydrogenase at pH 7.3
Measurement label: IC50

Asked: Give its IC50 value. Item: CN(C)c1ccc2nc3ccc(N(C)C)cc3[s+]c2c1.[Cl-] [METHYLENE BLUE ANHYDROUS]
Given back: > 1000 µM

====

# Experimental system: Glutathione reductase, mitochondrial (Homo sapiens)
# Sequence (P00390 whole entry): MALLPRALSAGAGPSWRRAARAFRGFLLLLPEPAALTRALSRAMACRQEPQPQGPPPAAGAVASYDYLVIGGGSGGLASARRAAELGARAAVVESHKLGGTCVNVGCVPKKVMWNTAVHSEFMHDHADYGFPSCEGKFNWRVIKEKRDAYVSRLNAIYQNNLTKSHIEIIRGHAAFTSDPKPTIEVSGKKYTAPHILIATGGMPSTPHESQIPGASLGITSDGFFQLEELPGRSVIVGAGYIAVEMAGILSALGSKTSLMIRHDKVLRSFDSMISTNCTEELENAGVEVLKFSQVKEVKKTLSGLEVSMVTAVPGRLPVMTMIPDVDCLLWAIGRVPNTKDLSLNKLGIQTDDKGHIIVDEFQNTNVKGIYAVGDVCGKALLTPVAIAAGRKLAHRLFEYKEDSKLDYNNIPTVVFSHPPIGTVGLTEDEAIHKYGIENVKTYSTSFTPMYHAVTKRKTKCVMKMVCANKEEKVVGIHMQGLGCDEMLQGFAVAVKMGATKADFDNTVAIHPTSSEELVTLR
# Protocol notes: Inhibition of human recombinant glutathione reductase at pH 6.9
Measurement label: IC50
Please report the result as a number followed by the unit.

Asked: Give its IC50 value. Item: CN(C)c1ccc2nc3ccc(N(C)C)cc3[s+]c2c1.[Cl-] [METHYLENE BLUE ANHYDROUS]
Given back: 16.4 µM

====

# Experimental system: UniProt Q6KCB6
# Sequence (Q6KCB6 whole entry): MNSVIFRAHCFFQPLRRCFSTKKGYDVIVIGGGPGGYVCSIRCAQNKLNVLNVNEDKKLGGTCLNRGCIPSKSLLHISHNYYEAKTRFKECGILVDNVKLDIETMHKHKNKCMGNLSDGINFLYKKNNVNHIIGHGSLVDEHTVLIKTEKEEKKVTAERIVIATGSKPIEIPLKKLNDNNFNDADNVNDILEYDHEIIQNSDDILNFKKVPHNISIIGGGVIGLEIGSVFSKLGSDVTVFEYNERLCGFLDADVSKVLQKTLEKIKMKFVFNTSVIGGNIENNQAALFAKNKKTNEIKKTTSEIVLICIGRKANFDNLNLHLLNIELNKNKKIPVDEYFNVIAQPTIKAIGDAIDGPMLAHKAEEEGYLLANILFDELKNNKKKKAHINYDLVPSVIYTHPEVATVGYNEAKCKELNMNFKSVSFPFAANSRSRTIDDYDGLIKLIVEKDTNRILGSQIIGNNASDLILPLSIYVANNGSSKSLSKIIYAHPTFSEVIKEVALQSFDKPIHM
# Protocol notes: Inhibition of Plasmodium falciparum recombinant dihydrolipoamide dehydrogenase at pH 7.3
pIC50: −log10 of the molar value.
Measurement label: pIC50

Asked: Give its pIC50 value. Item: CN(C)c1ccc2nc3ccc(N(C)C)cc3[s+]c2c1.[Cl-] [METHYLENE BLUE ANHYDROUS]
Given back: < 3.00

====

# Test system: Plasmodium falciparum
# Protocol notes: Antiplasmodial activity after 42 hrs against chloroquine-resistant Plasmodium falciparum K1 treated for 6 hrs by Giemsa stain
# Format: functional, organism-based
Measurement label: pEC50
Answers are plain numbers, as −log10 of the molar value.

Asked: Give its pEC50 value. Item: CN(C)c1ccc2nc3ccc(N(C)C)cc3[s+]c2c1.[Cl-] [METHYLENE BLUE ANHYDROUS]
Given back: 8.19

====

# Experimental system: Thioredoxin reductase 1, cytoplasmic (Homo sapiens, UniProt Q16881)
# Sequence (Q16881 whole entry): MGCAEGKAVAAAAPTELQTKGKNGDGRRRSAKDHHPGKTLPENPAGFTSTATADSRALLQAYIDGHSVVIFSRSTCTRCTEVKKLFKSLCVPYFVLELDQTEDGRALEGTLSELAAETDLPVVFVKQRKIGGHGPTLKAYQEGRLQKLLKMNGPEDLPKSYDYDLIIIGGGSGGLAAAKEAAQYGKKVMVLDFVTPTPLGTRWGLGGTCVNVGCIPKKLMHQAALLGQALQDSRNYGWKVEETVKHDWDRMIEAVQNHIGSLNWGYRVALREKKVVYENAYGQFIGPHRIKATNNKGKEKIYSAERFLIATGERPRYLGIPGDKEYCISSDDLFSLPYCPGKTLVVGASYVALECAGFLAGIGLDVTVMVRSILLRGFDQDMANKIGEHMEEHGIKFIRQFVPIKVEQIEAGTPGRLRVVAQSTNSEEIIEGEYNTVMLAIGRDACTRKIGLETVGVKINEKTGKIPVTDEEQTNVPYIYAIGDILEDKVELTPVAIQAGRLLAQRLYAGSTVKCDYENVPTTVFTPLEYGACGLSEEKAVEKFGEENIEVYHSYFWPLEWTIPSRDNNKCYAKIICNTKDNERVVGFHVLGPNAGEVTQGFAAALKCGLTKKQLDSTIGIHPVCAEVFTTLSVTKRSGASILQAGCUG
# Protocol notes: Inhibition of human recombinant TrxR1 at pH 7.4
Measurement label: pIC50
Give bare numbers, as −log10 of the molar value.

Asked: Give its pIC50 value. Item: CN(C)c1ccc2nc3ccc(N(C)C)cc3[s+]c2c1.[Cl-] [METHYLENE BLUE ANHYDROUS]
Given back: 4.52

====

# Protocol notes: Solubility in 100 mM phosphate buffer at pH 7.0
# Assay type: physicochemical
Measurement label: solubility

Asked: Give its solubility value. Item: CN(C)c1ccc2c(c1)Sc1cc(N(C)C)ccc1N2 [HYDROMETHYLTHIONINE]
Given back: < 50 µM

Attribution: ChEMBL document CHEMBL1151465
